# studyTarget: endogenously expressed TGR5 in NCI H716 (Homo sapiens, UniProt Q8TDU6)
# Construct: human caecum carcinoma cell line NCI-H716 which endogenously expresses human TGR5; endogenous in cells; host or cells: NCI-H716
# procedureText: Cell-based TGR5 assay, NCI-H716 cells endogenously expressing human TGR5, cAMP by HTRF
# experimentalConditions: 30 min at 37 C, 22 nM to 50 μM, read-out: pEC50 endogenously expressed TGR5 in NCI H716 (converted)
For each entry below, report its EC50 value.

Please fill in: EC50 reported for Cc1nn(C)c(Oc2cc(Cl)ccc2Cl)c1C(=O)N1CCN(C2CC2)c2ccccc21 = 1.26 to 50.1 µM

Please fill in: EC50 reported for O=C(O)CCc1cc(Cl)c(OCC2(C(=O)N3CCN(C4CC4)c4ccccc43)CC2)cc1Cl = 1.26 to 50.1 µM

Please fill in: EC50 reported for CN(C[C@H](O)[C@@H](O)[C@H](O)[C@H](O)CO)C(=O)CCCOc1cc(Cl)c(CN2CSC[C@H]2C(=O)N2CCN(C3CC3)c3ccccc32)cc1Cl = 0.126 to 1 µM

Please fill in: EC50 reported for CN(C(=O)C1(OCc2cc(Cl)c(CCCCNC(=O)NC[C@H](O)[C@@H](O)[C@H](O)[C@H](O)CO)cc2Cl)CC1)c1ccccc1OC1CC1 = 0.126 to 1 µM

Please fill in: EC50 reported for Cc1ccc(Cl)c(CN2CCC[C@H]2C(=O)N2CCN(C3CC3)c3ccccc32)c1F = 1.26 to 50.1 µM

Please fill in: EC50 reported for O=C(CCc1cc(Cl)c(CNC2(C(=O)N3CCN(C4CC4)c4ccccc43)CC2)cc1Cl)NCCOCCOCCNC(=O)CCc1cc(Cl)c(CNC2(C(=O)N3CCN(C4CC4)c4ccccc43)CC2)cc1Cl = 1.26 to 50.1 µM

###

# procedureText: Compound concentration in gallbladder 16 hours post dose
# Assay type: in vivo
# experimentalConditions: male, C57BL/6, mouse, gallbladder (homogenate, with contents), mice, 30 mg/kg, gallbladder, read-out: Mean Example Gallbladder Concentration
For each entry below, report its concentration at 16 h value.
Numeric answer only, unit nM assumed.

Please fill in: concentration at 16 h reported for O=C(N1CCCc2cccnc21)C1(OCc2cc(Cl)ccc2Cl)CC1 = 200

Please fill in: concentration at 16 h reported for O=C(O)CCc1cc(Cl)c(CNC2(C(=O)N3CCN(C4CC4)c4ccccc43)CC2)cc1Cl = 30

###

# studyTarget: human TGR5 (Homo sapiens, UniProt Q8TDU6)
# Construct: expressed in transfected cells
# Sequence (Q8TDU6 whole entry): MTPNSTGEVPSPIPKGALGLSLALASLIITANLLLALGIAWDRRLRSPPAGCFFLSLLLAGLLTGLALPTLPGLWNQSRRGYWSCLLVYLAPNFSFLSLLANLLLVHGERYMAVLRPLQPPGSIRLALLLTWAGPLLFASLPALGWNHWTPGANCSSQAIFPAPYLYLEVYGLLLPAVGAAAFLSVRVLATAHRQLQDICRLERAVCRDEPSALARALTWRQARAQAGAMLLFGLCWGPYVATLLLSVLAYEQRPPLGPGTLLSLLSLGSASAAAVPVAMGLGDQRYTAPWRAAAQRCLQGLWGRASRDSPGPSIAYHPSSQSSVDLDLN
# procedureText: Cell-based TGR5 assay, HEK293 cells stably expressing human TGR5, cAMP by HTRF
# experimentalConditions: HEK293 cells stably expressing human TGR5, 30 min at 37 C, 0.05 nM to 10 μM, read-out: pEC50 Human TGR5 (converted)
For each entry below, report its EC50 value.

Please fill in: EC50 reported for O=C(N1CCN(C2CC2)c2ccccc21)C1(OCc2cc(Cl)ccc2Cl)CCC1 [Example 41] = < 0.1 µM

Please fill in: EC50 reported for O=C(O)c1cnn(Cc2cc(Cl)c(CN3CSC[C@H]3C(=O)N3CCN(C4CC4)c4ccccc43)cc2Cl)c1 [Example 232] = 1.26 to 50.1 µM

Please fill in: EC50 reported for CN(C[C@H](O)[C@@H](O)[C@H](O)[C@H](O)CO)C(=O)CCc1cc(Cl)c(CN2CCC[C@H]2C(=O)N2CCN(C3CC3)c3ccccc32)cc1Cl [Example 48] = 0.126 to 1 µM

Please fill in: EC50 reported for O=C([C@@H]1CCCN1Cc1cc(C(F)(F)F)ccc1Cl)N1CCN(C2CC2)c2ccccc21 [Example 84] = < 0.1 µM

Please fill in: EC50 reported for O=C(CCCCc1ccc(C(F)(F)F)c(CN2CSC[C@H]2C(=O)N2CCN(C3CC3)c3ccccc32)c1)NC[C@H](O)[C@@H](O)[C@H](O)[C@H](O)CO [Example 271] = 1.26 to 50.1 µM

Please fill in: EC50 reported for CN(C)c1nc(NCCCCCc2cc(Cl)c(CN3CSC[C@H]3C(=O)N3CCN(C4CC4)c4ccccc43)cc2Cl)nc(NC(CO)(CO)CO)n1 [Example 200] = 0.126 to 1 µM

Please fill in: EC50 reported for CC(OC1(C(=O)N2CCN(C3CC3)c3ccccc32)CC1)c1cc(Cl)ccc1Cl (centres unmarked) [Example 94] = 1.26 to 50.1 µM

Please fill in: EC50 reported for CN(C(=O)C1(OCc2cc(Cl)c(CCCNC(=O)NC[C@H](O)[C@@H](O)[C@H](O)[C@H](O)CO)cc2Cl)CC1)c1ccccc1OC1CC1 [Example 96] = < 0.1 µM

Please fill in: EC50 reported for COc1cc(Cl)c(CN2CCC[C@H]2C(=O)N2CCN(C3CC3)c3ccccc32)cc1Cl [Example 89] = 0.126 to 1 µM

Please fill in: EC50 reported for O=C(N1CCN(C2CC2)c2ccccc21)C1(CSc2cc(Cl)ccc2Cl)CC1 [Example 180] = < 0.1 µM

Please fill in: EC50 reported for N=C(N)NCCCCCc1cc(Cl)c(CN2CSC[C@H]2C(=O)N2CCN(C3CC3)c3ccccc32)cc1Cl [Example 181] = < 0.1 µM

Please fill in: EC50 reported for CN(C[C@H](O)[C@@H](O)[C@H](O)[C@H](O)CO)C(=O)NCCCc1ccc(Cl)c(CN2CSC[C@H]2C(=O)N2CCN(C3CC3)c3ccccc32)c1 [Example 217] = 0.126 to 1 µM

Please fill in: EC50 reported for O=C(N1CCN(C2CC2)c2ccccc21)C1(NCc2cc(Cl)ccc2Cl)COC1 [Example 90] = < 0.1 µM

Please fill in: EC50 reported for O=C(N1CCN(C2CC2)c2ccccc21)C1(NCc2c(Cl)ccc(Cl)c2O)CC1 [Example 168] = 0.126 to 1 µM

###

# procedureText: Compound concentration in gall bladder, LC-MS/MS, 8 h post dose
# Format: in vivo
# experimentalConditions: 30 mg/kg, mice below LLOQ / mice in group
recordedEndpoint: Number of Mice with Gallbladder Concentration < LLOQ

Please fill in: Number of Mice with Gallbladder Concentration < LLOQ reported for C[C@@H](NC(=O)[C@@H](C)NC(=O)[C@@H](C)NC(=O)CCCCc1cc(Cl)c(CN2CSC[C@H]2C(=O)N2CCN(C3CC3)c3ccccc32)cc1Cl)C(=O)O [Example 227] = 0/7

Please fill in: Number of Mice with Gallbladder Concentration < LLOQ reported for O=C(CCc1cc(Cl)c(CN2CSC[C@H]2C(=O)N2CCN(C3CC3)c3ccccc32)cc1Cl)NC[C@H](O)[C@@H](O)C(O)[C@H](O)CO (stereo in doubt) [Example 97] = 0/8

Please fill in: Number of Mice with Gallbladder Concentration < LLOQ reported for O=C(N1CCN(C2CC2)c2ccccc21)C1(NCc2cc(Cl)ccc2Cl)CC1 [Example 26] = 0/8

Please fill in: Number of Mice with Gallbladder Concentration < LLOQ reported for CN(C(=O)C1(OCc2cc(Cl)c(CCCCC(=O)NC[C@H](O)[C@@H](O)[C@H](O)[C@H](O)CO)cc2Cl)CC1)c1ccccc1OC1CC1 [Example 259] = 0/8

Please fill in: Number of Mice with Gallbladder Concentration < LLOQ reported for O=C(NCCCCCc1cc(Cl)c(CN2CSC[C@H]2C(=O)N2CCN(C3CC3)c3ccccc32)cc1Cl)NCP(=O)(O)O [Example 283] = 0/8

Please fill in: Number of Mice with Gallbladder Concentration < LLOQ reported for O=C(OC1(C(=O)N2CCN(C3CC3)c3ccccc32)CC1)c1cc(Cl)ccc1Cl [Example 166] = 8/8

Please fill in: Number of Mice with Gallbladder Concentration < LLOQ reported for O=C(NCCCCCc1cc(Cl)c(CN2CSC[C@H]2C(=O)N2CCN(C3CC3)c3ccccc32)cc1Cl)NC(CO)(CO)CO [Example 198] = 0/8

Please fill in: Number of Mice with Gallbladder Concentration < LLOQ reported for CN(C[C@H](O)[C@@H](O)[C@@H](O)[C@H](O)CO)C(=O)CCCCc1cc(Cl)c(CN2CSC[C@H]2C(=O)N2CCN(C3CC3)c3ccccc32)cc1Cl [Example 239] = 8/8

Please fill in: Number of Mice with Gallbladder Concentration < LLOQ reported for CN(C[C@@H](O)[C@H](O)[C@@H](O)[C@@H](O)CO)C(=O)NCCCCc1cc(Cl)c(CN2CSC[C@H]2C(=O)N2CCN(C3CC3)c3ccccc32)cc1Cl [Example 208] = 0/7

Please fill in: Number of Mice with Gallbladder Concentration < LLOQ reported for CN(C[C@H](O)[C@@H](O)[C@H](O)[C@H](O)CO)C(=O)CCCCc1cc(Cl)c(CN2CSC[C@H]2C(=O)N2CCN(C3CC3)c3ccccc32)cc1Cl [Example 238] = 0/8

Please fill in: Number of Mice with Gallbladder Concentration < LLOQ reported for O=C(CCCCc1cc(Cl)c(CN2CSC[C@H]2C(=O)N2CCN(C3CC3)c3ccccc32)cc1Cl)NC[C@H](O)[C@@H](O)[C@H](O)[C@H](O)CO [Example 178] = 0/8

Please fill in: Number of Mice with Gallbladder Concentration < LLOQ reported for CN(C[C@H](O)[C@@H](O)[C@H](O)[C@H](O)CO)C(=O)CC[C@H](NC(=O)CCCCc1cc(Cl)c(CN2CSC[C@H]2C(=O)N2CCN(C3CC3)c3ccccc32)cc1Cl)C(=O)O [Example 278] = 0/8
